Target: 3-dehydroquinate dehydratase (Helicobacter pylori (strain ATCC 700392 / 26695) (Campylobacterpylori), UniProt Q48255)
Sequence (Q48255 whole entry): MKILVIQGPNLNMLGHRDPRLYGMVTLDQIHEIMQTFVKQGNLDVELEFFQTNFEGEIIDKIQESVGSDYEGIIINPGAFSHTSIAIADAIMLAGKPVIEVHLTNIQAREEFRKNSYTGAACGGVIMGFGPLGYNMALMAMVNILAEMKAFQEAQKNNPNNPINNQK
Test: Inhibition of Helicobacter pylori DHQ2 by UV spectroscopy
metricName: Ki

Req: Please report the recorded Ki for O=C(O)[C@]1(O)C=C(OCc2cc3ccccc3s2)[C@@H](O)[C@H](O)C1 .
Resp: 132 nM

Source of measurements: ChEMBL document CHEMBL1156760
